Hey, just so you know, these numbers are from paper PMC6920806.

- measurement_target: lectin PA-IL (Pseudomonas aeruginosa, UniProt Q05097)
- Construct: made in house; host or cells: Escherichia coli BL21(DE3)
- Sequence (Q05097 2-122): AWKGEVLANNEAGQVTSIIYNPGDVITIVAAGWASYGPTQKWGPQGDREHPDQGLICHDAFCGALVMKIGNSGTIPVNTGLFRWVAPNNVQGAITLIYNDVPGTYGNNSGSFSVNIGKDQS
- experiment_description: Hemagglutination inhibition assay (HIA) with microscope detection
- Type: biochemical
- assay_setup: inhibition of hemagglutination caused by PA-IL (0.125 mg mL−1), papain-treated red blood cells B+
property_label: MIC (minimal inhibitory concentration) (µM)
Answers are plain numbers, in µM.

Please review the following examples before continuing.
Prompt line: Report MIC (minimal inhibitory concentration) for COC(=O)c1cc(OCc2cn(CCn3cc(CO[C@@H]4O[C@H](CO)[C@H](O)[C@H](O)[C@H]4O)nn3)nn2)c(OCc2cn(CCn3cc(CO[C@@H]4O[C@H](CO)[C@H](O)[C@H](O)[C@H]4O)nn3)nn2)c(OCc2cn(CCn3cc(CO[C@@H]4O[C@H](CO)[C@H](O)[C@H](O)[C@H]4O)nn3)nn2)c1 [Compound 10] please.
Response line: 97.66

Prompt line: Report MIC (minimal inhibitory concentration) for COC(=O)c1cc(OCc2cn(CCOCCOCCOCCn3cc(CO[C@@H]4O[C@H](CO)[C@H](O)[C@H](O)[C@H]4O)nn3)nn2)c(OCc2cn(CCOCCOCCOCCn3cc(CO[C@@H]4O[C@H](CO)[C@H](O)[C@H](O)[C@H]4O)nn3)nn2)c(OCc2cn(CCOCCOCCOCCn3cc(CO[C@@H]4O[C@H](CO)[C@H](O)[C@H](O)[C@H]4O)nn3)nn2)c1 [Compound 4] please.
Response line: 48.83

Prompt line: Report MIC (minimal inhibitory concentration) for O=C[C@H](O)[C@@H](O)[C@@H](O)[C@H](O)CO [D-galactose, reference compound] please.
Response line: 6250

Prompt line: Report MIC (minimal inhibitory concentration) for OC[C@H]1O[C@@H](OCc2cn(CCOCCOCCOCCn3cc(COCC(COCc4cn(CCOCCOCCOCCn5cc(CO[C@@H]6O[C@H](CO)[C@H](O)[C@H](O)[C@H]6O)nn5)nn4)(COCc4cn(CCOCCOCCOCCn5cc(CO[C@@H]6O[C@H](CO)[C@H](O)[C@H](O)[C@H]6O)nn5)nn4)COCc4cn(CCOCCOCCOCCn5cc(CO[C@@H]6O[C@H](CO)[C@H](O)[C@H](O)[C@H]6O)nn5)nn4)nn3)nn2)[C@H](O)[C@@H](O)[C@H]1O [Compound 7] please.
Response line: 24.41

Shifting focus to the compound that follows.
Prompt line: Report MIC (minimal inhibitory concentration) for OC[C@H]1O[C@@H](OCc2cn(CCn3cc(COCC(COCc4cn(CCn5cc(CO[C@@H]6O[C@H](CO)[C@H](O)[C@H](O)[C@H]6O)nn5)nn4)(COCc4cn(CCn5cc(CO[C@@H]6O[C@H](CO)[C@H](O)[C@H](O)[C@H]6O)nn5)nn4)COCc4cn(CCn5cc(CO[C@@H]6O[C@H](CO)[C@H](O)[C@H](O)[C@H]6O)nn5)nn4)nn3)nn2)[C@H](O)[C@@H](O)[C@H]1O [Compound 13] please.
Response line: 48.83

---

- measurement_target: lectin PA-IL (Pseudomonas aeruginosa)
- Construct: made in house; host or cells: Escherichia coli BL21(DE3)
- experiment_description: Isothermal titration microcalorimetry (ITC)
- Type: binding
property_label: Kd (µM)
Numbers only, in µM.

Prompt line: Report Kd for COC(=O)c1cc(OCc2cn(CCn3cc(CO[C@@H]4O[C@H](CO)[C@H](O)[C@H](O)[C@H]4O)nn3)nn2)c(OCc2cn(CCn3cc(CO[C@@H]4O[C@H](CO)[C@H](O)[C@H](O)[C@H]4O)nn3)nn2)c(OCc2cn(CCn3cc(CO[C@@H]4O[C@H](CO)[C@H](O)[C@H](O)[C@H]4O)nn3)nn2)c1 [Compound 10] please.
Response line: 0.82

Shifting focus to the compound that follows.
Prompt line: Report Kd for O=C[C@H](O)[C@@H](O)[C@@H](O)[C@H](O)CO [D-galactose, reference compound] please.
Response line: 147

---

- measurement_target: lectin PA-IL (Pseudomonas aeruginosa, UniProt Q05097)
- Construct: made in house; host or cells: Escherichia coli BL21(DE3)
- experiment_description: SPR inhibition of PA-IL binding to immobilized D-galactosides
property_label: pIC50
Answers are plain numbers, as −log10 of the molar value.

Prompt line: Report pIC50 for `COC(=O)c1cc(OCc2cn(CCn3cc(CO[C@@H]4O[C@H](CO)[C@H](O)[C@H](O)[C@H]4O)nn3)nn2)c(OCc2cn(CCn3cc(CO[C@@H]4O[C@H](CO)[C@H](O)[C@H](O)[C@H]4O)nn3)nn2)c(OCc2cn(CCn3cc(CO[C@@H]4O[C@H](CO)[C@H](O)[C@H](O)[C@H]4O)nn3)nn2)c1` please.
Response line: 5.13

Next:
Prompt line: Report pIC50 for O=C[C@H](O)[C@@H](O)[C@@H](O)[C@H](O)CO [D-galactose, reference compound] please.
Response line: 3.73
